From: patent US5665765A

biological target: human dopamine D3 receptor (Homo sapiens, UniProt P35462); construct: expressed in transfected cells; membranes; experiment: binding to human D3 receptors expressed in CHO cells ([125I]-iodosulpride); details: [125I]-iodosulpride 0.2 nM, CHO cell membranes, 30 min at 30° C.; pKi=-logKi; read-out: pKi (human D3) (converted)
Sequence (P35462 whole entry): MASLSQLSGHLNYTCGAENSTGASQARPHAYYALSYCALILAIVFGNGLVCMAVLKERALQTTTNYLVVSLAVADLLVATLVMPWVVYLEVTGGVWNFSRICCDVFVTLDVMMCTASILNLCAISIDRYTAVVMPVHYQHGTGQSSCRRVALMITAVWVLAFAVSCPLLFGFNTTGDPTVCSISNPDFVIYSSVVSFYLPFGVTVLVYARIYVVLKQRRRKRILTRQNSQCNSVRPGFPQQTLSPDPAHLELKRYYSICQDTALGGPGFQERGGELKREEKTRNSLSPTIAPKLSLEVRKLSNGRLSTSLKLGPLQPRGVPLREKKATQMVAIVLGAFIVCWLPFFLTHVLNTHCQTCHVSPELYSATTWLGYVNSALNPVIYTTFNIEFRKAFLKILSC
log10 of Ki reference
Values are log10 of Ki in nM.

// solved cases for log10 of Ki follow
>>> val("c1ccc(CNC2CCc3cc4c(cc3C2)OCC4)cc1 (centres unmarked)")
3.07
>>> val("CCCN(CCc1ccc2c(c1)CC(=O)N2)C1CCc2cc3c(cc2C1)OCC3 (racemic)")
0.06
>>> val("CCCN(CCCc1ccc(NC(C)=O)cc1)C1CCc2cc3c(cc2C1)OCC3 (racemic)")
0.55

Entry NC1CCc2cc3ccoc3cc2C1 (centres unmarked) , log10 of Ki reported as 2.59

The reported log10 of Ki of the molecule FC(F)(F)CNC1CCc2cc3c(cc2C1)OCC3 (centres unmarked) was 4.00

For reference, reported log10 of Ki for CN(CC1CCCCC1)C1CCc2cc3c(cc2C1)OCC3 (centres unmarked) stands at 2.18

Reported log10 of Ki for CCCN(CCc1ccc(O)cc1)C1CCc2cc3c(cc2C1)OCC3 (racemic) was 0.35

log10 of Ki reading for CN(C)C1CCc2cc3c(cc2C1)OCC3 (centres unmarked) : 2.32

Form field log10 of Ki, entry CCCN(CCCc1ccc2c(c1)CC(=O)N2)C1CCc2cc3c(cc2C1)OCC3 (racemic) : 0.54

Input CCOCCNC1CCc2cc3c(cc2C1)OCC3 (centres unmarked) . Output log10 of Ki: 2.88

Per the records, this molecule ( NC1CCc2cc3c(cc2C1)OCC3 (centres unmarked) ) has log10 of Ki equal to 2.20
